Source: ChEMBL document CHEMBL1201862

tested on: CCRF-CEM; assay: NCI tumour cell line growth inhibition, 48 h
Calls of active or inactive are those of the source. Cut-off read from the data, not from the text of the source: active = GI50 up to about 1.1 µM and inactive = higher.
Pick from T for active, F for inactive when you respond.

For orientation, consider the following solved cases.
Fill in: this test's call for CC[N+](CC)(CC)/C(=N\S(=O)(=O)c1ccc(Cl)cc1)[N-]S(=O)(=O)c1cc(C)c(Cl)cc1S is ___
F

Query: recorded result category for CC1CN(C(=O)CN2CCC(CCCCN(C)C)CC2)c2ccccc2NC1=O (stereo not drawn) in this test
F

Returns: the outcome recorded for CC1=NC(C)(C)[N+]([O-])=C1 in this assay.
F

Entry CCOC(=O)CCC(C(=O)OCC)n1nnc2ccc(Nc3c(C)[n+]([O-])c4ccc(Cl)cc4[n+]3[O-])cc21 (stereo not drawn) : call = ?
F

***
Which outcome was assigned to COc1ccc2c([nH]c3c(O)c(-c4c(C)cc5c([nH]c6c(CC=C(C)C)c(OC)ccc65)c4O)c(C)cc32)c1CC=C(C)C [BISMURRAYAFOLINE B] in this test?
F

Short answer needed: outcome of this test for Cn1c2c(c3ccccc31)CC(=O)N1CCCC(C1)CC21OCCO1 (stereo not drawn) ?
F

Recorded call for CON1C(=O)C2(CCCCC2)C(=O)C12C=CC(C)CC2 (stereo not drawn) ?
F

Recorded test outcome, item CCCCCCCCCCCC(=O)OCC(O)CO (stereo not drawn) [GLYCEROL MONOLAURATE]
F

# outcome recorded in this test, key = COc1cc2c(c(O)c1OC)-c1c(cc(OC)c(OC)c1OC)CC(C)C(C)C2 (stereo not drawn) [GOMISIN K3]
F

Entry C/C(CC(=O)Nc1ccc(C)c(C)c1)=N\N(c1ccccc1)c1ccccc1 : call = ?
F

Fill in: this test's call for COCOc1c(C(O[Si](C)(C)C(C)(C)C)c2cnc(Sc3ccccc3)n2C)ccc(OC)c1OC (stereo not drawn) is ___
F

Write down the call the test reported for this compound. Item: C#C[C@H]1CCCCCC1O (stereo partly drawn)
F

State the result this test recorded for CC(C)CC(C/C=C1/CC(CO)(COC(=O)C(C)(C)C)OC1=O)CC(C)C (stereo not drawn) .
T

// param item: CN(C)C(=C1C(Br)=C(Br)C(Br)=C1Br)N(C)C ; yields the recorded call
F

Check the results log: what was the call for COc1ccc(C2=N/C(=C\c3ccccc3)C(=O)O2)cc1 ?
F

Can you look up the reported call for COC1=CC(=O)C(C2(OC(C)C)OC(=O)C(Cl)=C2Cl)=CC1=O (stereo not drawn) for me?
F

Field: outcome | Entry: CCNC(=O)Nc1cccc(NC(=O)NCC)n1
F

Each compound tested received a call. Report the one for OCC1OC(n2nc(-c3ccccc3)nc2-c2cnccn2)C(O)C(O)C1O (stereo not drawn) .
F

Status in this test for CCOC(=O)c1cc(C(=O)c2ccccc2)n2nc(-c3ccc(Cl)cc3)ccc12 ?
F

Status in this test for O=C(/C=C/c1ccc2c(c1)OCO2)Cc1nc2ccccc2[nH]c1=O ?
F

Each compound tested received a call. Report the one for C[N+](C)(C)CC1CCc2ccccc2C1=O (stereo not drawn) .
F

Outcome logged for CN(C)/C(=N\C#N)N(Cc1ccccc1)Cc1ccccc1 in this assay:
F

---

system: SF-295; assay: NCI tumour cell line growth inhibition, 48 h
The source made the active and inactive calls. No stated cut-off is given here; in the data, active = GI50 up to about 1.1 µM and inactive = higher.
measured.endpoint: GI50

Here's what some known entries look like.
Give the reported GI50 for this compound. CCOC(=O)C(NC(=O)c1nc[nH]c1/N=N/N(C)C)C(C)C (stereo not drawn)
> 100 µM (inactive)

Check the records and state GI50 for Nc1ccc(/N=N/c2ccc(/C=C/c3ccc(/N=N/c4ccc(N)c5ccc(S(=O)(=O)O)cc45)cc3S(=O)(=O)O)c(S(=O)(=O)O)c2)c2cc(S(=O)(=O)O)ccc12
> 100 µM (inactive)

Item S=C1N(c2ccc(Cl)cc2)C2=C(/N=N/c3ccccc3)C(=Nc3ccccc3S2)N1c1ccccn1 : provide GI50
15.7 µM (inactive)

Give the reported value of GI50 for this record: CC1=C(C(=O)Nc2ccc([N+](=O)[O-])cc2)C(c2cccc([N+](=O)[O-])c2)C(C(=O)Nc2ccc([N+](=O)[O-])cc2)=C(C)N1
30.1 µM (inactive)

Supply recorded GI50 for CCCCCCCCCCCC(=O)OCC1OC(n2cc(F)c(=O)[nH]c2=O)C(N)C(O)C1O (stereo not drawn) here.
> 100 µM (inactive)

Go through the items and report each one's GI50.
1. COC(=O)C1=Cc2cc(OC)c(O)cc2[C@@H](c2ccc(O)c(OC)c2)[C@@H]1C(=O)OC
2. CO/C=C(/C(=O)OC)c1ccccc1[C@H]1C[C@@H]1c1ccc(OC)cc1
3. COc1ccc2c(c1)/C(=C\c1c(Cl)[nH]c3ccccc13)C(=O)N2

1. > 100 µM (inactive)
2. 17.2 µM (inactive)
3. 1.97 µM (inactive)
